Listing: pIC50 of selected molecules
Biological target: MurA (Escherichia coli)
Sequence (P0A749 whole entry): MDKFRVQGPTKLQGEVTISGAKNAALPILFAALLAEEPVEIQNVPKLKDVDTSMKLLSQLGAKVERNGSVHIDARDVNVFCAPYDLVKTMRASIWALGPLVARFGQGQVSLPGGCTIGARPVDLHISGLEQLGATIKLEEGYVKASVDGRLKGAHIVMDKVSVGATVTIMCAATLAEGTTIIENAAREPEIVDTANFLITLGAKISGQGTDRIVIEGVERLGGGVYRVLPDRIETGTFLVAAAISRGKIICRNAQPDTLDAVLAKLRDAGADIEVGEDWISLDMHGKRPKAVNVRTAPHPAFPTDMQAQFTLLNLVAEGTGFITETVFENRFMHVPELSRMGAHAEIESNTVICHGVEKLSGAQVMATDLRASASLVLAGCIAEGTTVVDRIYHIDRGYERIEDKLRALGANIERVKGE
Experiment: Inhibition of MurA, colorimetric malachite green method
Format: biochemical, bacterial
Settings: Table 1; IC50 ± SEM; read-out: MurA IC50
By convention, pIC50 is the negative base-10 log of a molar concentration.

# count of solved cases: 5
molecule=CCCCCCN(Cc1ccc(C#Cc2ccc(C(C)(C)C)cc2)cc1)c1ccc(F)c(C(=O)O)c1 meas_value=4.85
molecule=CCCCc1ccc(C#Cc2ccc(CN(CC3CC3)c3ccc(O)c(C(=O)O)c3)cc2)cc1 meas_value=5.15
molecule=CC(C)(C)CCN(Cc1ccc(C#Cc2ccc(F)cc2)cc1)C(=O)c1ccc(O)c(C(=O)O)c1 meas_value=4.57
molecule=Cc1ccc(C#Cc2ccc(CN(CCC(C)(C)C)c3ccc(O)c(C(=O)O)c3)cc2)cc1 meas_value=3.99
molecule=COC(=O)c1cc(N(Cc2ccc(C#Cc3ccc(C(C)(C)C)cc3)cc2)CC2CC2)ccc1F meas_value=4.04

Bench note: what pIC50 did C[C@@H]1O[C@@H]1P(=O)(O)O [Fosfomycin, reference compound] show?
6.62

Where these numbers come from: paper PMC9320114
